- measurement.description: Hemolytic activity in human RBC assessed as induction of hemolysis incubated for 1 hr
- Assay type: cell-based, Erythrocyte
- condition.details: red blood cells (erythrocytes), read-out: HD50
Reported HC50 at 1 h is given for each of the following compounds.
metric.name: HC50 at 1 h

substance.smiles	metric.name	meas.value
CC(=O)N[C@@H](CCCNC(=N)N)c1nc(C)sc1C(=O)N[C@@H](C)c1nc(C)sc1C(=O)N[C@@H](C)c1nc(C)sc1C(=O)N[C@@H](CCCNC(=N)N)c1nc(C)sc1C(=O)N[C@@H](C)c1nc(C)sc1C(=O)N[C@@H](C)c1nc(C)sc1C(=O)N[C@@H](CCCNC(=N)N)c1nc(C)sc1C(=O)N[C@@H](C)c1nc(C)sc1C(=O)N[C@@H](C)c1nc(C)sc1C(=O)N[C@@H](CCCNC(=N)N)c1nc(C)sc1C(=O)N[C@@H](C)c1nc(C)sc1C(=O)N[C@@H](C)c1nc(C)sc1C(N)=O	HC50 at 1 h	46 µM
CC(=O)N[C@@H](CCCCN)c1nc(C)sc1C(=O)N[C@@H](C)c1nc(CCCCN)sc1C(=O)N[C@@H](C)c1nc(C)sc1C(N)=O	HC50 at 1 h	> 100 µM
CC(=O)N[C@@H](CCCNC(=N)N)c1nc(C)sc1C(=O)N[C@@H](C)c1nc(CCCNC(=N)N)sc1C(=O)N[C@@H](C)c1nc(C)sc1C(=O)N[C@@H](CCCNC(=N)N)c1nc(C)sc1C(=O)N[C@@H](C)c1nc(CCCNC(=N)N)sc1C(=O)N[C@@H](C)c1nc(C)sc1C(=O)N[C@@H](CCCNC(=N)N)c1nc(C)sc1C(=O)N[C@@H](C)c1nc(CCCNC(=N)N)sc1C(=O)N[C@@H](C)c1nc(C)sc1C(=O)N[C@@H](CCCNC(=N)N)c1nc(C)sc1C(=O)N[C@@H](C)c1nc(CCCNC(=N)N)sc1C(=O)N[C@@H](C)c1nc(C)sc1C(N)=O	HC50 at 1 h	> 100 µM
